Target: human OX2 receptor (Homo sapiens)
Sequence (O43614 1-444): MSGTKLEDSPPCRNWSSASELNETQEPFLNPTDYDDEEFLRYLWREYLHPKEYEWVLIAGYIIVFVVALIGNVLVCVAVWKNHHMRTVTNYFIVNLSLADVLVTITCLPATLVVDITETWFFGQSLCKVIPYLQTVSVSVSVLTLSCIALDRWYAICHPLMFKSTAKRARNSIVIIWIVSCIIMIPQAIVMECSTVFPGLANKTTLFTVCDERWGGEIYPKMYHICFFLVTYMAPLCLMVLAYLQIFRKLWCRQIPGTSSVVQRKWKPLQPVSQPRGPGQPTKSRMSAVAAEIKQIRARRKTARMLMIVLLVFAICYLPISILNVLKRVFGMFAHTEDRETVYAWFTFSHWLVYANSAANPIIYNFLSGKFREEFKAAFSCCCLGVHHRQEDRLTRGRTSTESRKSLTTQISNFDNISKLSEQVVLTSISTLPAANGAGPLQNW
Experiment: IPone accumulation assay, CHO cells expressing OX2 (antagonism of orexin A)
Format: cell-based
Settings: CHO human OX2, orexin A EC80 challenge (40 nM), read-out: fpKb average OX2 (converted)
readout-type: Kb

molecule | observed-value
COc1ncc(N2CCc3c(F)cccc3N(Cc3ccc(Br)cc3F)C2=O)cc1C(C)(F)F | > 2510 nM
Cc1ccc(N2CCc3c(F)cccc3N(Cc3c(F)cc(Br)cc3F)C2=O)cc1S(C)(=O)=O | > 3160 nM
COc1ncc(C2CCc3c(F)cccc3N(Cc3c(F)cc(Br)cc3F)C2=O)cc1S(C)(=O)=O (racemic) [Example 19] | > 3160 nM
COc1ncc(C2CCc3c(F)cccc3N(Cc3c(F)cc(Br)cc3F)C2=O)cc1S(C)(=O)=O (single isomer, unassigned) [Example 21] | > 1580 nM
COc1cc(F)c(CN2C(=O)N(c3cnc(OC)c(C(C)(F)F)c3)CCc3c(F)cccc32)c(F)c1 | > 316 nM
COc1cc(F)c(CN2C(=O)N(c3cnc(OC)c(S(C)(=O)=O)c3)CCc3c(F)cccc32)c(F)c1 | > 3980 nM
[2H]C([2H])([2H])Oc1cc(F)c(CN2C(=O)N(c3cnc(OC)c(C(C)(F)F)c3)CCc3c(F)cccc32)c(F)c1 | 398 nM
COc1ncc(C2CCc3c(F)cccc3N(Cc3cc(C#N)ccc3F)C2=O)cc1C(C)(F)F (single isomer, unassigned) | > 794 nM
COc1ncc(N2CCc3c(F)cccc3N(Cc3c(F)cc(Cl)cc3F)C2=O)cc1C(C)(F)F | > 3160 nM
COc1ncc(N2CCc3c(F)cccc3N(Cc3c(C)cc(F)cc3F)C2=O)cc1S(C)(=O)=O | > 3160 nM
CCCc1cc(F)c(CN2C(=O)N(c3ccc(C)c(S(C)(=O)=O)c3)CCc3c(F)cccc32)c(F)c1 | > 3980 nM
COCc1cc(F)c(CN2C(=O)N(c3cnc(C)c(C(C)(F)F)c3)CCc3c(F)cccc32)c(F)c1 | 1000 nM
[2H]C([2H])([2H])Oc1ncc(N2CCc3c(F)cccc3N(Cc3c(F)cc(Br)cc3F)C2=O)cc1C(C)(F)F | > 3980 nM
Cc1cc(C)c(S(C)(=O)=O)cc1N1CCc2ccccc2N(Cc2c(F)cc(OC(C)C)cc2F)C1=O | 794 nM
COCc1cc(F)c(CN2C(=O)N(c3cnc(OC)c(C(C)(F)F)c3)CCc3c(F)cccc32)c(F)c1 | > 3980 nM
